Each recorded value in this set is attributed to PubChem BioAssay (NCI).

Test system: SNB-19 CNS
Assay: NCI tumour cell line growth inhibition, 48 h
Field: TGI. Provide a value for each of the compounds that follow.

COMPOUND	TGI
O=[N+]([O-])/C(C(Cl)=C(Cl)Cl)=C(/Br)SCc1ccccc1	27.7 µM
Fc1cccc(C2SCC3=Nc4ccccc4CN32)c1 (stereo not given)	> 100 µM
Cc1nc2cc(-c3nn(C(C)C)c4ncnc(N)c34)ccc2o1	> 10 µM
Cc1cc(=O)[nH]c(S(=O)(=O)NC(=S)Nc2ccc(Cl)cc2)n1	> 100 µM
CC12CCC([C@H](Nc3cc(C(F)(F)F)cc(C(F)(F)F)c3)C1=O)C2(C)C (stereo not given in full)	> 100 µM

Return reported TGI values for all items listed beneath this line.
1. COc1ccc(/C=C/C2C(C#N)=C(N)OC3=C2C(=O)CCC3)cc1 (stereo not given)
2. CCSc1n/c(=C\c2ccc(N(C)C)cc2)c2nnnn12

Result:
["43.1 µM", "> 100 µM"]

###

Field: TGI. Provide a value for each of the compounds that follow.
Tested on: SK-MEL-5 melanoma
Test: NCI tumour cell line growth inhibition, 48 h

Some solved cases for reference:
COMPOUND	OBSERVED_PROPERTY	RESULT
NNC(=O)c1ccccc1Nc1nc(-c2cccs2)nc2ccc(Br)cc12	TGI	> 100 µM
COc1ccc(-c2cc(=O)c3c(O)cc(O)cc3o2)cc1OC	TGI	> 100 µM
O=c1ncc(I)cn1C1CC(O)C(CO)O1 (centres undefined)	TGI	> 3250 µM

Now turn to the next compound.
Q: Send back SK-MEL-5 melanoma TGI of O=C(O)c1ccc(NCc2nc3cc(Cl)c(Cl)cc3[nH]2)cc1 only.
Result: > 100 µM

###

Test system: NCI/ADR-RES ovarian
Assay: NCI tumour cell line growth inhibition, 48 h
OBSERVED_PROPERTY: TGI

Some solved cases for reference:
COMPOUND	ASSAY_SYSTEM	TGI
OCCN(CCO)c1ccc2c(-c3ccccc3)cc(N(CCO)CCO)nc2n1	NCI/ADR-RES ovarian	> 100 µM
Cc1cc(=O)[nH]c(S(=O)(=O)NC(=S)Nc2ccc(Cl)cc2)n1	NCI/ADR-RES ovarian	> 100 µM
COC(=O)C1=C(C=O)C2C=CC1C2 (stereo not given)	NCI/ADR-RES ovarian	> 100 µM
Cn1c(-c2ccncc2)c(-c2ccc(F)cc2)c2ncccc21	NCI/ADR-RES ovarian	> 25 µM

Q: Look up and report measured TGI for this entry: O=c1oc2ccc(Cl)cc2c2ccccc12
Result: > 100 µM

###

Field: TGI. Provide a value for each of the compounds that follow.
Tested on: OVCAR-3 ovarian
Experiment: NCI tumour cell line growth inhibition, 48 h

Some solved cases for reference:
COMPOUND	RESULT
CCOC(=O)[C@@H]1[C@@H]2NC(=O)N[C@@]1(C)Oc1ccccc12	> 100 µM
COc1ccc2c(c1OC)-c1c(c3ccc([N+](=O)[O-])cc3c(=O)n1CCCN)C2=O	32.6 µM
CCCN1C/C(=C\c2ccc(O)c(OC)c2)C(=O)/C(=C/c2ccc(O)c(OC)c2)C1	> 100 µM
CC1=CC2C(=O)N(c3ccccc3)C(=O)C2CC1n1[nH]c(=O)n(Cc2ccccc2)c1=O (stereo unspecified)	> 100 µM
Cc1ccc(C2=NN(c3ccc(S(C)(=O)=O)cc3)C(=O)CC2)cc1	2.35 µM

Now turn to the next compound.
Q: Look up and report measured TGI for this entry: CSc1nc(NC2OC(COC(C)=O)C(OC(C)=O)C(OC(C)=O)C2OC(C)=O)c(N=CC=Nc2c(NC3OC(COC(C)=O)C(OC(C)=O)C(OC(C)=O)C3OC(C)=O)nc(SC)[nH]c2=O)c(=O)[nH]1 (stereo unspecified)
Result: > 100 µM

###

Field: TGI. Provide a value for each of the molecules that follow.
Test system: M14 melanoma
Assay: NCI tumour cell line growth inhibition, 48 h

Some solved cases for reference:
OC(CC(CC(O)(C(F)(F)F)C(F)(F)F)=NN=C(CC(O)(C(F)(F)F)C(F)(F)F)CC(O)(C(F)(F)F)C(F)(F)F)(C(F)(F)F)C(F)(F)F > 10 µM
O=[N+]([O-])c1nccn1COCCO > 100 µM
Cc1nn2c(/C=N/N=C(N)N)c(-c3ccc(Cl)c([N+](=O)[O-])c3)nc2s1 3.3 µM
Cc1cc(=O)n2nnc3c4ccccc4ccc3n12 27.1 µM

Now turn to the next molecule.
Q: Look up and report measured TGI for this entry: CC(C)Oc1ccc(-c2nn([C@@H](C)c3oc4ccc(F)cc4c(=O)c3-c3cccc(F)c3)c3ncnc(N)c23)cc1F
Result: > 100 µM

###

Tested on: RPMI-8226 leukemia
Assay: NCI tumour cell line growth inhibition, 48 h
OBSERVED_PROPERTY: TGI

Some solved cases for reference:
COMPOUND	ASSAY_SYSTEM	TGI
COc1ccc(C2SC(N)=Nc3c2c(C)nn3C(=O)Cc2ccccc2)cc1 (configuration not stated)	RPMI-8226 leukemia	> 100 µM
COc1cc2c3c(n(CCCNC4=NCCS4)c(=O)c2cc1OC)-c1cc2c(cc1C3=O)OCO2	RPMI-8226 leukemia	0.296 µM
Cc1nn2c(/C=N/N=C(N)N)c(-c3ccc(Cl)c([N+](=O)[O-])c3)nc2s1	RPMI-8226 leukemia	1.76 µM

Return reported TGI values for all items listed beneath this line.
1. OC(CC(CC(O)(C(F)(F)F)C(F)(F)F)=NN=C(CC(O)(C(F)(F)F)C(F)(F)F)CC(O)(C(F)(F)F)C(F)(F)F)(C(F)(F)F)C(F)(F)F
2. CSc1nc(NC2OC(COC(C)=O)C(OC(C)=O)C(OC(C)=O)C2OC(C)=O)c(N=CC=Nc2c(NC3OC(COC(C)=O)C(OC(C)=O)C(OC(C)=O)C3OC(C)=O)nc(SC)[nH]c2=O)c(=O)[nH]1 (configuration not stated)
3. Cc1c2c(n(C)c1C)C(=O)C1C(C2=O)C2(C)c3ccccc3C1(C)c1ccccc12 (configuration not stated)
4. N#CNCC(COCc1ccccc1)c1ccccc1 (configuration not stated)

Result:
1. > 10 µM
2. > 100 µM
3. > 100 µM
4. > 100 µM

###

Field: GI50. Provide a value for each of the molecules that follow.
Test system: LOX IMVI melanoma
Test: NCI tumour cell line growth inhibition, 48 h

Return reported GI50 values for all items listed beneath this line.
1. COc1ccc(C2C=C(c3ccc(OC)c(OC)c3)N=C3SC=CN32)c(Br)c1 (stereo not given)
2. [2H]c1nc(C)nc([2H])c1-c1cc(NC[C@@H](C)c2cccc3c(C(=O)NC)ccnc23)ncn1
3. CC(C)N(CCCNC(=O)Nc1ccc(C(C)(C)C)cc1)C[C@H]1O[C@@H](n2ccc3c(N)ncnc32)[C@H](O)[C@@H]1O
4. C=C1C(O)C2C(=C(CCC3CC3)C13CC3)C(=O)C(C)(C)C2O (stereo not given)

Result:
1. 1.88 µM
2. > 100 µM
3. > 100 µM
4. > 100 µM

Q: Look up and report measured GI50 for this entry: O=C(Nc1ccc(Cl)cc1)Nc1ccc(Cl)c(C(F)(F)F)c1
Result: 3.31 µM

###

Field: TGI. Provide a value for each of the compounds that follow.
System: SNB-75 CNS
Assay: NCI tumour cell line growth inhibition, 48 h

Some solved cases for reference:
COMPOUND	TGI
Cc1csc2nc(-c3ccncc3)cn12	> 100 µM
O=C1OC2C=CCC1C2 (stereo unspecified)	> 100 µM
COc1cc(S(=O)(=O)Nc2nc(-c3ccc(N4C(=O)/C(=C\c5cccs5)N=C4c4ccccc4)cc3)cs2)ccc1Cl	> 100 µM
CCC(N)(C(=O)O)C(C)C (stereo unspecified)	> 100 µM
CCC(=O)OC1=C(c2ccccc2)Sc2ccc(Cl)cc2-n2cccc21	> 10 µM

Now turn to the next compound.
Q: Look up and report measured TGI for this entry: CCOP(=O)(O)CC1OC(CO)C(O)C1O (stereo unspecified)
Result: > 100 µM

###

Test system: HOP-62 NSCLC
Assay: NCI tumour cell line growth inhibition, 48 h
OBSERVED_PROPERTY: GI50

MOLECULE	GI50
COc1cc2c3c(n(CCCNC4=NCCS4)c(=O)c2cc1OC)-c1cc2c(cc1C3=O)OCO2	< 0.01 µM

Return reported GI50 values for all items listed beneath this line.
1. O=c1ccccc(-c2ccc(Br)cc2)c1O
2. COc1cc(OC)c(/C=C/c2cc[n+](C)c3ccccc23)c(OC)c1
3. COc1ccc(C(=O)c2sc3nc4c(cc3c2N)CCCC4)cc1OC
4. CNCCCNc1nc2ccccc2c2c(=O)c3cc(F)ccc3sc12
5. COc1ccc(C(=S)N(C)NC(=O)CC(=O)NN(C)C(=S)c2ccc(OC)cc2)cc1
6. CC(C)N(C(C)C)[PH+]1O[PH+](N(C(C)C)C(C)C)O[PH+](N(C(C)C)C(C)C)O[PH+](N(C(C)C)C(C)C)O1.[C-]#[O+].[C-]#[O+].[C-]#[O+].[C-]#[O+].[C-]#[O+].[C-]#[O+].[C-]#[O+].[C-]#[O+].[Mo].[Mo] (centres undefined)
7. CC1(C)CC[C@]2(C(=O)Nc3ccccn3)CC[C@]3(C)C(=CC[C@@H]4[C@@]5(C)C/C(=C/c6ccncc6)C(=O)C(C)(C)[C@@H]5CC[C@]43C)[C@@H]2C1
8. COC(=O)/C=C1/SC(=Nc2ccc(F)cc2)N(CCc2c[nH]c3ccc(O)cc23)C1=O

Result:
1. 0.377 µM
2. 3.17 µM
3. 3.87 µM
4. 1.5 µM
5. > 100 µM
6. > 100 µM
7. 4.41 µM
8. 3.83 µM
